Record form. Attribute: protein stability index. Fill in for each entry.
B1: DYRK1B (parent)
chain: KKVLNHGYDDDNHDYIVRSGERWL

Variants of: B1
Assay: protein stability index of a GFP-peptide fusion (GPS, HEK-293T) (PSI 1-6); higher = more stable;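 further: lentivirally expressed fusions sorted by FACS into six bins by GFP to DsRed ratio, PSI derived from sequencing read proportions per bin multiplied by bin number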
Details: c terminus: a fixed tail appended
One number for each entry.

>  <mutantName>
N12S

>  <observedMeasurement>
3.01

$$$$

For every record below, what is its protein stability index?
1. H6P
2. D11L

1: 3.27; 2: 2.25
